Tested on: 857933-349-R-J2-PDC complex spheroid viability
Assay: Anticancer human tumor 857933-349-R-J2-PDC patient-derived colon adenocarcinoma cell line growth inhibition [POLQ]
Details: second compound 0.1 µM; first compound 0.1 µM; stronger effect = lower value
parameter_measured: viability, T/C (%)

{"columns": ["compound", "reported_result"],
 "data": [
  ["COc1ccc([C@@H](O)c2cc(-c3ncnc4cc(N5CCOCC5)ccc34)c(F)cc2Cl)nn1 + Cc1cccc(N(C)C(=O)C2C(O)CCN2c2nc(C)cc(C(F)(F)F)c2C#N)c1", 114],
  ["C=CCn1c(=O)c2cnc(Nc3ccc(N4CCN(C)CC4)cc3)nc2n1-c1cccc(C(C)(C)O)n1 + COC1C(OC(N)=O)C(O)C(Oc2ccc3c(O)c(NC(=O)c4ccc(O)c(CC=C(C)C)c4)c(=O)oc3c2C)OC1(C)C", 89.4],
  ["Cn1ncnc1[C@H]1c2n[nH]c(=O)c3cc(F)cc(c23)N[C@@H]1c1ccc(F)cc1 + Nc1ccc(C#CCN(C(=O)Cc2ncc(C(F)(F)F)cc2C(F)(F)F)c2ccc(F)cc2)nn1", 91.5]
]}

====

# key: entry, value: viability, T/C
System: 857933-349-R-J2-PDC complex spheroid viability
Experiment: Anticancer human tumor 857933-349-R-J2-PDC cell line growth inhibition [POLQ];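 further: spheroids exposed to compounds for seven days before readout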
Settings: second compound 1 µM; first compound 3.16 µM; stronger effect = lower value

{"columns": ["compound", "unit_name", "viability, T/C"],
 "data": [
  ["O=C(c1cc(Cc2n[nH]c(=O)c3ccccc23)ccc1F)N1CCN(C(=O)C2CC2)CC1 + Cc1cccc(N(C)C(=O)C2C(O)CCN2c2nc(C)cc(C(F)(F)F)c2C#N)c1", "%", 73.7],
  ["Nc1ccn(C2OC(CO)C(O)C2(F)F)c(=O)n1 (stereo not given) + COC1C(OC(N)=O)C(O)C(Oc2ccc3c(O)c(NC(=O)c4ccc(O)c(CC=C(C)C)c4)c(=O)oc3c2C)OC1(C)C", "%", 14.5],
  ["C#Cc1c(F)ccc2cc(O)cc(-c3ncc4c(N5CC6CCC(C5)N6)nc(OCC56CCCN5CC(F)C6)nc4c3F)c12 (stereo not given) + Cc1cccc(N(C)C(=O)C2C(O)CCN2c2nc(C)cc(C(F)(F)F)c2C#N)c1", "%", 91],
  ["COc1ccc([C@@H](O)c2cc(-c3ncnc4cc(N5CCOCC5)ccc34)c(F)cc2Cl)nn1 + Cc1cccc(N(C)C(=O)C2C(O)CCN2c2nc(C)cc(C(F)(F)F)c2C#N)c1", "%", 91.6],
  ["C=CC(=O)N1CCN(c2nc(=O)n(-c3c(C)ccnc3C(C)C)c3nc(-c4c(O)cccc4F)c(F)cc23)C(C)C1 (stereo not given) + COC1C(OC(N)=O)C(O)C(Oc2ccc3c(O)c(NC(=O)c4ccc(O)c(CC=C(C)C)c4)c(=O)oc3c2C)OC1(C)C", "%", 99.2],
  ["CCc1cc2c(N3CCc4c(cc(Cn5ccnc5)cc4-c4cn(C)nc4C(F)(F)F)C3=O)cc(C)nc2c(OC)n1 + COC1C(OC(N)=O)C(O)C(Oc2ccc3c(O)c(NC(=O)c4ccc(O)c(CC=C(C)C)c4)c(=O)oc3c2C)OC1(C)C", "%", 52.8],
  ["CC1COCCN1c1cc(-c2ccnn2C)c2ccnc(-c3ccn[nH]3)c2n1 (stereo not given) + COC1C(OC(N)=O)C(O)C(Oc2ccc3c(O)c(NC(=O)c4ccc(O)c(CC=C(C)C)c4)c(=O)oc3c2C)OC1(C)C", "%", 56.2],
  ["COc1ccc([C@@H](O)c2cc(-c3ncnc4cc(N5CCOCC5)ccc34)c(F)cc2Cl)nn1 + Nc1ccc(C#CCN(C(=O)Cc2ncc(C(F)(F)F)cc2C(F)(F)F)c2ccc(F)cc2)nn1", "%", 84.5],
  ["Nc1ccn(C2OC(CO)C(O)C2(F)F)c(=O)n1 (stereo not given) + Cc1cccc(N(C)C(=O)C2C(O)CCN2c2nc(C)cc(C(F)(F)F)c2C#N)c1", "%", 12.1],
  ["O=C(Nc1ccc(O)c(NS(=O)(=O)c2ccc(F)cc2)c1)c1ccc(-c2ccccc2)cc1 + Cc1cccc(N(C)C(=O)C2C(O)CCN2c2nc(C)cc(C(F)(F)F)c2C#N)c1", "%", 114]
]}

====

# key: entry, value: pIC50
Tested on: 857933-349-R-J2-PDC complex spheroid viability
Experiment: Anticancer human tumor 857933-349-R-J2-PDC cell line growth inhibition [POLQ];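 further: spheroids exposed to compounds for seven days before readout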
Conditions: curve of first compound; second compound 1 µM
pIC50: −log10 of the molar value.

{"columns": ["compound", "assay_target", "pIC50"],
 "data": [
  ["C=CCn1c(=O)c2cnc(Nc3ccc(N4CCN(C)CC4)cc3)nc2n1-c1cccc(C(C)(C)O)n1 + Cc1cccc(N(C)C(=O)C2C(O)CCN2c2nc(C)cc(C(F)(F)F)c2C#N)c1", "857933-349-R-J2-PDC complex spheroid viability", "< 6.00"],
  ["CCc1cc2c(N3CCc4c(cc(Cn5ccnc5)cc4-c4cn(C)nc4C(F)(F)F)C3=O)ccnc2c(OC)n1 + COC1C(OC(N)=O)C(O)C(Oc2ccc3c(O)c(NC(=O)c4ccc(O)c(CC=C(C)C)c4)c(=O)oc3c2C)OC1(C)C", "857933-349-R-J2-PDC complex spheroid viability", "< 5.00"],
  ["CC(C)n1c(=O)n(C)c2cnc3cc(F)c(-c4ccc(OCCCN5CCCCC5)nc4)cc3c21 + Nc1ccc(C#CCN(C(=O)Cc2ncc(C(F)(F)F)cc2C(F)(F)F)c2ccc(F)cc2)nn1", "857933-349-R-J2-PDC complex spheroid viability", "< 5.00"],
  ["CC(=O)O[C@H]1C(=O)[C@@]2(C)[C@H]([C@H](OC(=O)c3ccccc3)[C@]3(O)C[C@H](OC(=O)[C@H](O)[C@@H](NC(=O)c4ccccc4)c4ccccc4)C(C)=C1C3(C)C)[C@]1(OC(C)=O)CO[C@@H]1C[C@@H]2O + COC1C(OC(N)=O)C(O)C(Oc2ccc3c(O)c(NC(=O)c4ccc(O)c(CC=C(C)C)c4)c(=O)oc3c2C)OC1(C)C", "857933-349-R-J2-PDC complex spheroid viability", 7.91],
  ["CCc1cc2c(N3CCc4c(cc(Cn5ccnc5)cc4-c4cn(C)nc4C(F)(F)F)C3=O)cc(C)nc2c(OC)n1 + Nc1ccc(C#CCN(C(=O)Cc2ncc(C(F)(F)F)cc2C(F)(F)F)c2ccc(F)cc2)nn1", "857933-349-R-J2-PDC complex spheroid viability", "< 5.00"],
  ["COc1ccc([C@@H](O)c2cc(-c3ncnc4cc(N5CCOCC5)ccc34)c(F)cc2Cl)nn1 + Cc1cccc(N(C)C(=O)C2C(O)CCN2c2nc(C)cc(C(F)(F)F)c2C#N)c1", "857933-349-R-J2-PDC complex spheroid viability", "< 5.00"],
  ["C=CCn1c(=O)c2cnc(Nc3ccc(N4CCN(C)CC4)cc3)nc2n1-c1cccc(C(C)(C)O)n1 + COC1C(OC(N)=O)C(O)C(Oc2ccc3c(O)c(NC(=O)c4ccc(O)c(CC=C(C)C)c4)c(=O)oc3c2C)OC1(C)C", "857933-349-R-J2-PDC complex spheroid viability", "< 6.00"],
  ["CCc1cc2c(N3CCc4c(cc(Cn5ccnc5)cc4-c4cn(C)nc4C(F)(F)F)C3=O)cc(C)nc2c(OC)n1 + COC1C(OC(N)=O)C(O)C(Oc2ccc3c(O)c(NC(=O)c4ccc(O)c(CC=C(C)C)c4)c(=O)oc3c2C)OC1(C)C", "857933-349-R-J2-PDC complex spheroid viability", "< 5.00"],
  ["O=c1[nH]cc(F)c(=O)[nH]1 + Cc1cccc(N(C)C(=O)C2C(O)CCN2c2nc(C)cc(C(F)(F)F)c2C#N)c1", "857933-349-R-J2-PDC complex spheroid viability", 5.48]
]}

====

Tested on: 857933-349-R-J2-PDC complex spheroid viability
Experiment: Anticancer human tumor 857933-349-R-J2-PDC cell line growth inhibition [POLQ];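 further: spheroids exposed to compounds for seven days before readout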
Conditions: second compound 10 µM; first compound 0.001 µM; stronger effect = lower value

{"columns": ["compound", "viability, T/C [%]"],
 "data": [
  ["Cn1ncnc1[C@H]1c2n[nH]c(=O)c3cc(F)cc(c23)N[C@@H]1c1ccc(F)cc1 + Nc1ccc(C#CCN(C(=O)Cc2ncc(C(F)(F)F)cc2C(F)(F)F)c2ccc(F)cc2)nn1", 82.1],
  ["CC[C@@]1(O)C(=O)OCc2c1cc1n(c2=O)Cc2cc3c(CN(C)C)c(O)ccc3nc2-1 + COC1C(OC(N)=O)C(O)C(Oc2ccc3c(O)c(NC(=O)c4ccc(O)c(CC=C(C)C)c4)c(=O)oc3c2C)OC1(C)C", 123],
  ["Cn1ncnc1[C@H]1c2n[nH]c(=O)c3cc(F)cc(c23)N[C@@H]1c1ccc(F)cc1 + Cc1cccc(N(C)C(=O)C2C(O)CCN2c2nc(C)cc(C(F)(F)F)c2C#N)c1", 115],
  ["CC[C@@]1(O)C(=O)OCc2c1cc1n(c2=O)Cc2cc3c(CN(C)C)c(O)ccc3nc2-1 + Nc1ccc(C#CCN(C(=O)Cc2ncc(C(F)(F)F)cc2C(F)(F)F)c2ccc(F)cc2)nn1", 86.1],
  ["CC[C@@]1(O)C(=O)OCc2c1cc1n(c2=O)Cc2cc3c(CN(C)C)c(O)ccc3nc2-1 + Cc1cccc(N(C)C(=O)C2C(O)CCN2c2nc(C)cc(C(F)(F)F)c2C#N)c1", 92.3],
  ["Cn1ncnc1[C@H]1c2n[nH]c(=O)c3cc(F)cc(c23)N[C@@H]1c1ccc(F)cc1 + COC1C(OC(N)=O)C(O)C(Oc2ccc3c(O)c(NC(=O)c4ccc(O)c(CC=C(C)C)c4)c(=O)oc3c2C)OC1(C)C", 94.8]
]}
